All values here come from patent US9796733B2.

Below is a list of entries, each paired with its recorded pEC50 value.
# TEST_TARGET: sGC α1/β1 heterodimer (Homo sapiens, UniProt Q02108+Q02153)
# Sequence (Q02108 whole entry): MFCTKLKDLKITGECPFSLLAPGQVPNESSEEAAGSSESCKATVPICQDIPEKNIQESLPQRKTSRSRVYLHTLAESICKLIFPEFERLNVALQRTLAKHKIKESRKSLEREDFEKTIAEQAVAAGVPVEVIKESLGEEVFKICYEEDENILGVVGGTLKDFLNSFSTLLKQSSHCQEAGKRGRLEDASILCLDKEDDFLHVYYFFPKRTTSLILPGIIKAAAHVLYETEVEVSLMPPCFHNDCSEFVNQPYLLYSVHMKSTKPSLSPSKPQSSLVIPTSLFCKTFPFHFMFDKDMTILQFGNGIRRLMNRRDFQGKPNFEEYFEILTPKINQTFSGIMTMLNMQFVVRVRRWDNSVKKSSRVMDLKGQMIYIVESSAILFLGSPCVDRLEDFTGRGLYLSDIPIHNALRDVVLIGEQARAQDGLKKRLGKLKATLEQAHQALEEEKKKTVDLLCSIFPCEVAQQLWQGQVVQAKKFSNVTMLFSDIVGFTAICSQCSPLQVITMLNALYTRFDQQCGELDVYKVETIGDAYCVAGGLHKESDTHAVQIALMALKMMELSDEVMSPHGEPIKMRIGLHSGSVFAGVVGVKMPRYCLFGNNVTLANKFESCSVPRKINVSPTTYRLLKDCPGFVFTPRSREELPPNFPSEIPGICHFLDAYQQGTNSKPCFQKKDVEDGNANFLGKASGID
# Sequence (Q02153 whole entry): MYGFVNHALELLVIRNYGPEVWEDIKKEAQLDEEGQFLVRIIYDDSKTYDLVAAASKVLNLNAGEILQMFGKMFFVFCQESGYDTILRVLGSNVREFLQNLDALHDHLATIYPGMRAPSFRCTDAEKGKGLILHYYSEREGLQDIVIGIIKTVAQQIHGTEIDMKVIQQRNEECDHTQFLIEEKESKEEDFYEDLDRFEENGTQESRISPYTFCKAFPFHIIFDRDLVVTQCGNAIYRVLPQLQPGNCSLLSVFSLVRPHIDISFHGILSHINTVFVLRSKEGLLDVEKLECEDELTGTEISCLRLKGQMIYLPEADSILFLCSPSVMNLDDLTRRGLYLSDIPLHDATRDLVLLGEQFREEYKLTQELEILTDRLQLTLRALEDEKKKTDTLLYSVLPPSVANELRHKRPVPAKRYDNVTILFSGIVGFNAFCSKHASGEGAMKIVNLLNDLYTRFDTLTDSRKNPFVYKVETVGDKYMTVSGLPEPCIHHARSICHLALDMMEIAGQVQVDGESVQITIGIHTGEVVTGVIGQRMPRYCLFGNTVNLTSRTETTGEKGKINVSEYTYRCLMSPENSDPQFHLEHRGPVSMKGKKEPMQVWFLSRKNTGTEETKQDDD
# TEST: Cell-based sGC functional assay (CASA assay): cGMP generation in CHO-K1/sGC cells, HTRF detection
# STUDY_CONDITIONS: inflection point (IP) of cGMP generation in CHO-K1/sGC cells, 4P fit; activity expressed as percentage of Compound A
pEC50: −log10 of the molar value.
READOUT_NAME: pEC50

{"MOLECULE": "CC1(c2ccccc2)C(=O)Nc2nc(-c3cn4c(Cl)cnc4c(CCC(F)(F)F)n3)nc(N)c21 (stereo not drawn) [Example 259B]", "READOUT_NAME": "pEC50", "VALUE_OBSERVED": 6.95}
{"MOLECULE": "Nc1nc(-c2cn3ccnc3c(CCCC(F)(F)F)n2)nc2c1C(c1ccc(Cl)cn1)(C1CC1)C(=O)N2 (stereo not drawn) [Example 218B]", "READOUT_NAME": "pEC50", "VALUE_OBSERVED": 6.60}
{"MOLECULE": "CC1(C(=O)NC2CC2)C(=O)Nc2nc(-c3cn4cc(C(F)(F)F)nc4c(Cc4ccc(F)c(F)c4)n3)nc(N)c21 (stereo not drawn) [Example 52A]", "READOUT_NAME": "pEC50", "VALUE_OBSERVED": 6.02}
{"MOLECULE": "CCc1nc(-c2nc(N)c3c(n2)NC(=O)C3(C)c2ccc(Cl)c(F)c2)cn2ccnc12 (stereo not drawn) [Example 314B]", "READOUT_NAME": "pEC50", "VALUE_OBSERVED": 6.36}
{"MOLECULE": "Cc1cncc(C2(C3CC3)C(=O)Nc3nc(-c4cn5ccnc5c(CCC(F)(F)C(F)(F)F)n4)nc(N)c32)n1 (single isomer, unassigned) [Example 366B]", "READOUT_NAME": "pEC50", "VALUE_OBSERVED": 6.07}
{"MOLECULE": "Cc1ncc(C2(C3CC3)C(=O)Nc3nc(-c4cn5ccnc5c(CCC(F)(F)C(F)(F)F)n4)nc(N)c32)cn1 (single isomer, unassigned) [Example 348B]", "READOUT_NAME": "pEC50", "VALUE_OBSERVED": 5.81}
{"MOLECULE": "Nc1nc(-c2cn3ccnc3c(CCCC(F)(F)F)n2)nc2c1C(c1ccc(Cl)cc1F)(C1CC1)C(=O)N2 (stereo not drawn) [Example 339A]", "READOUT_NAME": "pEC50", "VALUE_OBSERVED": 6.91}
{"MOLECULE": "CC1(c2ccc(Cl)cc2)C(=O)Nc2nc(-c3cn4ccnc4cn3)nc(NC3CC(F)(F)C3)c21 (stereo not drawn) [Example 287A]", "READOUT_NAME": "pEC50", "VALUE_OBSERVED": 6.42}
{"MOLECULE": "Cc1cc(Cl)cnc1C1(C2CC2)C(=O)Nc2nc(-c3cn4ccnc4c(CCCC(F)(F)F)n3)nc(N)c21 (single isomer, unassigned) [Example 364A]", "READOUT_NAME": "pEC50", "VALUE_OBSERVED": 6.56}
{"MOLECULE": "CC1(c2ccc(Cl)c(F)c2)C(=O)Nc2nc(-c3cn4ccnc4cn3)nc(N)c21 (stereo not drawn) [Example 140B]", "READOUT_NAME": "pEC50", "VALUE_OBSERVED": 6.66}
{"MOLECULE": "CC1(c2ccc(Cl)cc2)C(=O)Nc2nc(-c3cn4cc(C(F)(F)F)nc4c(Cc4cccc(F)c4)n3)nc(N)c21 (stereo not drawn) [Example 150A]", "READOUT_NAME": "pEC50", "VALUE_OBSERVED": 7.54}
{"MOLECULE": "CC1(C(=O)NC2CC2)C(=O)Nc2nc(-c3cn4cc(C(F)(F)F)nc4c(Cc4cccc(F)c4)n3)nc(N)c21 (stereo not drawn) [Example 46A]", "READOUT_NAME": "pEC50", "VALUE_OBSERVED": 6.24}
{"MOLECULE": "Cc1nnc(C2(C)C(=O)Nc3nc(-c4cn5ccnc5c(CCC(F)(F)C(F)(F)F)n4)nc(N)c32)s1 (stereo not drawn) [Example 58A]", "READOUT_NAME": "pEC50", "VALUE_OBSERVED": 6.20}
{"MOLECULE": "CC1(C)CN(c2nc(-c3cn4ccnc4c(CCC(F)(F)C(F)(F)F)n3)nc3c2C(C)(c2ccc(F)cc2)C(=O)N3)CCO1 (stereo not drawn) [Example 304A]", "READOUT_NAME": "pEC50", "VALUE_OBSERVED": 6.38}
{"MOLECULE": "CCC1(c2ccc(Cl)cc2)C(=O)Nc2nc(-c3cn4ccnc4c(CCCC(F)(F)F)n3)nc(N)c21 (stereo not drawn) [Example 209B]", "READOUT_NAME": "pEC50", "VALUE_OBSERVED": 7.31}
{"MOLECULE": "CC1(c2ccc(F)cn2)C(=O)Nc2nc(-c3cn4c(N)cnc4c(CCC(F)(F)C(F)(F)F)n3)nc(N)c21 (stereo not drawn) [Example 268B]", "READOUT_NAME": "pEC50", "VALUE_OBSERVED": 6.47}
{"MOLECULE": "CN(C)c1nc(-c2cn3ccnc3c(CCC(F)(F)C(F)(F)F)n2)nc2c1C(C)(c1ccc(F)cn1)C(=O)N2 (stereo not drawn) [Example 291B]", "READOUT_NAME": "pEC50", "VALUE_OBSERVED": 6.10}
{"MOLECULE": "CC1(c2ccc(F)c(F)c2)C(=O)Nc2nc(-c3cn4ccnc4c(CCC(F)(F)F)n3)nc(N)c21 (stereo not drawn) [Example 183B]", "READOUT_NAME": "pEC50", "VALUE_OBSERVED": 7.21}
{"MOLECULE": "CC1(C(=O)NC2CC2)C(=O)Nc2nc(-c3cn4cc(C(F)(F)F)nc4c(Cc4cccc(F)c4F)n3)nc(N)c21 (stereo not drawn) [Example 43A]", "READOUT_NAME": "pEC50", "VALUE_OBSERVED": 6.74}
{"MOLECULE": "CC(C)C1(c2ccc(Cl)cc2)C(=O)Nc2nc(-c3cn4ccnc4c(CCC(F)(F)F)n3)nc(N)c21 (stereo not drawn) [Example 203B]", "READOUT_NAME": "pEC50", "VALUE_OBSERVED": 5.93}
{"MOLECULE": "CC1(c2ccc(Cl)cn2)C(=O)Nc2nc(-c3cn4ccnc4c(CC4CCC4)n3)nc(N)c21 (stereo not drawn) [Example 116A]", "READOUT_NAME": "pEC50", "VALUE_OBSERVED": 8.00}
{"MOLECULE": "CC1(c2nnc(C3CC3)s2)C(=O)Nc2nc(-c3cn4ccnc4c(Cc4ccc(F)cc4)n3)nc(N)c21 (stereo not drawn) [Example 32A]", "READOUT_NAME": "pEC50", "VALUE_OBSERVED": 7.24}
{"MOLECULE": "Nc1nc(-c2cn3ccnc3c(Cc3ccc(F)cc3)n2)nc2c1C(c1ccc(F)cn1)(C1CC1)C(=O)N2 (stereo not drawn) [Example 104A]", "READOUT_NAME": "pEC50", "VALUE_OBSERVED": 6.40}
{"MOLECULE": "CC1(c2ccc(F)cc2)C(=O)Nc2nc(-c3cn4ccnc4c(Cc4cccc(F)c4)n3)nc(N)c21 (single isomer, unassigned) [Example 90B]", "READOUT_NAME": "pEC50", "VALUE_OBSERVED": 6.85}
{"MOLECULE": "CC(C)c1nc(C2(C)C(=O)Nc3nc(-c4cn5ccnc5c(CCC(F)(F)C(F)(F)F)n4)nc(N)c32)no1 (single isomer, unassigned) [Example 321B]", "READOUT_NAME": "pEC50", "VALUE_OBSERVED": 6.63}
{"MOLECULE": "CC1(c2ccc(Cl)cc2)C(=O)Nc2nc(-c3cn4ccnc4cn3)nc(NCC(F)(F)F)c21 (stereo not drawn) [Example 288A]", "READOUT_NAME": "pEC50", "VALUE_OBSERVED": 7.92}
{"MOLECULE": "CC(C)Oc1ccc(C2(C)C(=O)Nc3nc(-c4cn5ccnc5c(CCC(F)(F)C(F)(F)F)n4)nc(N)c32)cn1 (stereo not drawn) [Example 241B]", "READOUT_NAME": "pEC50", "VALUE_OBSERVED": 7.24}

---

# TEST_TARGET: sGC α1/β1 heterodimer (Homo sapiens, UniProt Q02108+Q02153)
# Construct: expressed in transfected cells; host or cells: CHO-K1 (clone #7, CHO-K1/sGC)
# TEST: Cell-based sGC functional assay (CASA assay): cGMP generation in CHO-K1/sGC cells, HTRF detection
# STUDY_CONDITIONS: CHO-K1, percent activation relative to standard Compound A in CHO-K1/sGC cells; read-out: % Act.
Below is a list of entries, each paired with its recorded Emax value.
READOUT_NAME: Emax

{"MOLECULE": "CC1(c2ccc(Cl)cc2Cl)C(=O)Nc2nc(-c3cn4ccnc4c(CCC(F)(F)F)n3)nc(N)c21 (centres unmarked) [Example 187A]", "READOUT_NAME": "Emax", "VALUE_OBSERVED": "126%"}
{"MOLECULE": "CC1(c2ccc(F)cc2)C(=O)Nc2nc(-c3cn4cc(C(F)(F)F)nc4c(CCC(F)(F)C(F)(F)F)n3)nc(N)c21 (centres unmarked) [Example 156A]", "READOUT_NAME": "Emax", "VALUE_OBSERVED": "92%"}
{"MOLECULE": "CC1(C)C(=O)Nc2nc(-c3cn4ccnc4c(Cc4ccccc4)n3)nc(N)c21 [Example 76]", "READOUT_NAME": "Emax", "VALUE_OBSERVED": "119%"}
{"MOLECULE": "CNc1nc(-c2cn3ccnc3c(CCC(F)(F)C(F)(F)F)n2)nc2c1C(C)(c1ccc(F)cn1)C(=O)N2 (centres unmarked) [Example 290B]", "READOUT_NAME": "Emax", "VALUE_OBSERVED": "106%"}
{"MOLECULE": "COc1cn2cc(-c3nc(N)c4c(n3)NC(=O)C4(C)c3ccc(F)cn3)nc(CCC(F)(F)C(F)(F)F)c2n1 (centres unmarked) [Example 175B]", "READOUT_NAME": "Emax", "VALUE_OBSERVED": "88%"}
{"MOLECULE": "Nc1nc(-c2cn3ccnc3c(CCC(F)(F)C(F)(F)F)n2)nc2c1C(c1cccnc1)(C1CC1)C(=O)N2 (single isomer, unassigned) [Example 359B]", "READOUT_NAME": "Emax", "VALUE_OBSERVED": "108%"}
{"MOLECULE": "CCC(CC)Cc1nc(-c2nc(N)c3c(n2)NC(=O)C3(C)c2ccc(F)cc2)cn2ccnc12 (centres unmarked) [Example 13A]", "READOUT_NAME": "Emax", "VALUE_OBSERVED": "114%"}
{"MOLECULE": "CC1(c2ccc(Cl)c(F)c2)C(=O)Nc2nc(-c3cn4ccnc4c(CC4CCC4)n3)nc(N)c21 (centres unmarked) [Example 113B]", "READOUT_NAME": "Emax", "VALUE_OBSERVED": "138%"}
{"MOLECULE": "Nc1nc(-c2cn3ccnc3c(CCCC(F)(F)F)n2)nc2c1C(c1ncc(Cl)cn1)(C1CC1)C(=O)N2 (centres unmarked) [Example 373A]", "READOUT_NAME": "Emax", "VALUE_OBSERVED": "114%"}
{"MOLECULE": "CC1(c2ccc(F)cc2)C(=O)Nc2nc(-c3cn4ccnc4c(CCc4cccc(F)c4)n3)nc(N)c21 (centres unmarked) [Example 4A]", "READOUT_NAME": "Emax", "VALUE_OBSERVED": "123%"}
{"MOLECULE": "CC1(c2ccc(F)cc2)C(=O)Nc2nc(-c3cn4ccnc4c(-c4ccccc4)n3)nc(N)c21 (centres unmarked) [Example 112A]", "READOUT_NAME": "Emax", "VALUE_OBSERVED": "89%"}
{"MOLECULE": "CC1(c2ccc(C(F)(F)F)cc2)C(=O)Nc2nc(-c3cn4ccnc4c(CCC(F)(F)F)n3)nc(N)c21 (centres unmarked) [Example 189B]", "READOUT_NAME": "Emax", "VALUE_OBSERVED": "143%"}
{"MOLECULE": "CC1(c2ccc(C3CC3)nn2)C(=O)Nc2nc(-c3cn4ccnc4c(CCC(F)(F)C(F)(F)F)n3)nc(N)c21 (centres unmarked) [Example 253B]", "READOUT_NAME": "Emax", "VALUE_OBSERVED": "83%"}
{"MOLECULE": "Nc1nc(-c2cn3ccnc3c(CCCC(F)(F)F)n2)nc2c1C(c1ccc(OC(F)(F)F)cc1)(C1CC1)C(=O)N2 (centres unmarked) [Example 347A]", "READOUT_NAME": "Emax", "VALUE_OBSERVED": "107%"}
